tested on: HS 578T breast; assay: NCI tumour cell line growth inhibition, 48 h; in the data active means GI50 below about 0.43 µM; inactive means the rest
Respond using exactly one of the listed classes: T for active, F for inactive

Answer briefly: the call reported for O=C(O)c1ccc(NCn2nc(-c3ccccc3O)oc2=S)cc1O in this assay.
F

What did the test return for ClCCN(CCCl)c1ccc(OCc2ccccc2)cc1 ?
F

# lookup: test call for Cc1cc(S(=O)(=O)Nc2n[nH]c(-c3ccc(Cl)cc3)c2C#N)c(S)cc1Cl
F

Assay result, entry CC(C)[C@]12O[C@H]1[C@@H]1O[C@]13[C@]1(O[C@H]1C[C@H]1C4=C(CC[C@@]13C)C(=O)OC4)[C@@H]2OC(=O)OC(C)(C)C — outcome?
T

Fill in: this test's call for CC(=O)N[C@@H](Cc1ccc(OP(=O)(O)O)cc1)C(=O)N[C@H]1CCC(=O)N2CCC[C@@H](C(=O)NCc3cccc4ccccc34)N2C1=O is ___
F

Recorded call for O=C(NCCCNc1cc(-c2cn(-c3ccccc3)nc2-c2cccc(O)c2)ccn1)c1ccc(F)cc1 ?
F

Outcome logged for COC(=O)Nc1nc2ccc(C(=O)C3CC3)cc2[nH]1 in this assay:
T

Assay outcome for O=C(CSc1nc2ccc([N+](=O)[O-])cc2[nH]1)Nc1ccc([N+](=O)[O-])cc1 : what was it?
F

Per the assay record, what outcome was assigned to COc1c(O)cc2c(c1CC=C(C)C)OC(=O)c1c(cc(O)c(CC=C(C)C)c1O)O2 ?
F

Assay outcome for CCOC(=O)Nc1ccc2c3c(cccc13)-c1ccccc1-2 : what was it?
F

I'd appreciate the recorded outcome for NNC(=S)N/N=C/c1ccccn1 from this test.
F

###

Record form. Attribute: GI50. Fill in for each entry.
tested on: UACC-62 melanoma; assay: NCI tumour cell line growth inhibition, 48 h

The compound listed as CC[C@@]1(O)C(=O)OCc2c1cc1n(c2=O)Cc2cc3c(OC)cccc3nc2-1 shows GI50 equal to 0.00262 µM

Record summary for Nc1nc(N)c2cc(Sc3ccc(Cl)cc3)ccc2n1 : reported GI50 = 0.795 µM

Record O=C(NCCCNc1cc(-c2cn(-c3ccccc3)nc2-c2cccc(O)c2)ccn1)c1ccc(F)cc1 . Reported GI50: 2.05 µM

Form field GI50, entry COc1cc2c3c(n(CCCNC(C)(C)CO)c(=O)c2cc1OC)-c1cc2c(cc1C3=O)OCO2 : 0.198 µM

Quick note, GI50 for Oc1c(CCl)cc(Cl)cc1Cc1cc(Cl)cc(Cc2cc(Cl)cc(CCl)c2O)c1O landed at 2.9 µM

Entry under test: CO[C@@H]1[C@H](N(C)C(=O)c2ccccc2)C[C@@H]2O[C@]1(C)n1c3ccccc3c3c4c(c5c6ccccc6n2c5c31)C(=O)NC4=O . Its GI50 was 0.54 µM

// COc1cc2cc(Oc3ccc(NC(=O)Nc4ccc(F)c(C(F)(F)F)c4)cc3)c(C)nc2cc1OCCN1CCOCC1 : GI50 value = 1.36 µM

Reported GI50 ( O=C1/C(=C\c2ccc(Cl)cc2)CN(C(=O)c2ccccc2)C/C1=C\c1ccc(Cl)cc1 ) = 1.86 µM

// recorded GI50 for CN1CCN(C(=O)OCc2nc3c(N4CCOCC4)nc(-c4ccccc4)nc3n2C)CC1 : 1.25 µM

###

system: NCI-H23 lung; assay: NCI tumour cell line growth inhibition, 48 h; in the data active = GI50 below about 0.43 µM; inactive = the rest
Mark one answer only. Choices: active, inactive

Hey, what did the test say about Fc1cc(C2=Nn3c(nnc3-c3cc(F)c(Cl)cc3Cl)SC2)c(Cl)cc1Cl ?
inactive

Given Cc1cccc2c1NC(=O)[C@@H](NC(=O)[C@H](CCC(F)(F)F)[C@H](CCC(F)(F)F)C(N)=O)N=C2c1cccc(F)c1 , state the outcome it received in this test.
inactive

// return assay outcome for O=C(NCCCNc1cc(-c2cn(-c3ccccc3)nc2-c2cccc(O)c2)ccn1)c1ccc(F)cc1
inactive

// return assay outcome for CC(C)[C@]12O[C@H]1[C@@H]1O[C@]13[C@]1(O[C@H]1C[C@H]1C4=C(CC[C@@]13C)C(=O)OC4)[C@@H]2OC(=O)OC(C)(C)C
active

Per the records of this test, what outcome belongs to NS(=O)(=O)c1ccc(N=Nc2c(O)[nH]c3cccc(CCc4ccncc4)c23)cc1 ?
inactive

Write down the call the test reported for this compound. Item: CN1CCN(C(=O)OCc2nc3c(N4CCOCC4)nc(-c4ccccc4)nc3n2C)CC1
inactive

# fetch the recorded call for COc1ncnn2ccc(-c3cnc4nc(C)n(Cc5nnc(C(C)F)o5)c4c3)c12 (stereo not given) here
active

Which outcome was entered for the compound Fc1ccc(-c2nn3c(COc4ccccc4Cl)nnc3s2)cc1Oc1ccccc1 in this test?
inactive

So what was the verdict on N#C/C(=C\c1ccc([N+](=O)[O-])cc1)n1nnc2cc(F)c(F)cc21 in this test?
inactive

What classification did CCOC(=O)Nc1ccc2c3c(cccc13)-c1ccccc1-2 end up with in this test?
inactive
